Experiment: Neurotoxicity in Albino CF1 mouse by rotarod test
Assay type: toxicity, organism-based
Conditions: in vivo
metric-name: TD50 (mg/kg)
Answers are plain numbers, in mg/kg.

Before answering, review these 3 worked examples.
Give its TD50 value. Item: CCC[C@@H](C(=O)NC(N)=O)C(C)C
118

Find the recorded TD50 belonging to CCC[C@H](C(=O)NC(N)=O)C(C)C and report it.
100

Reported TD50 for CCC(C)C(CC)C(=O)NC(N)=O (configuration not stated) [CAPURIDE] : what is it?
50

Further cases:
Give its TD50 value. Item: CCCC(C(=O)NC(N)=O)C(C)C (racemic)
50

Numbers sourced from ChEMBL document CHEMBL1138323.
